Study Target: T1, human CD3 E&D complex protein (Sino Biological Inc., CT026H0323H) (human, UniProt P07766 23-126; P04234 22-105)
T1 construct: bought heterodimer; also called human CD3 protein (CT026H0323H)
T1 sequence (P07766 23-126, chain 1 of 2): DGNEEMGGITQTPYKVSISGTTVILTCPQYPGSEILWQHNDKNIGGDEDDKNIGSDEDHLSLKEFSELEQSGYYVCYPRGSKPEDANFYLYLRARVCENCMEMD
T1 sequence (P04234 22-105, chain 2 of 2): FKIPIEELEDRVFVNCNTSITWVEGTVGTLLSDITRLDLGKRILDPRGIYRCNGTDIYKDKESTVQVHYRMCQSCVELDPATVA
Assay Comment: BLI, antibody on sensor
Protocol: 100 μl SD buffer, various antibodies, human CD3 E&D complex protein (Sino Biological Inc., CT026H0323H), and cynomolgus monkey CD3 E&D complex protein (Sino Biological Inc., CT032-00323H) were added into 96-well black polystyrene semi-quantitative micro-well plate (Greiner, 675076) respectively. Fortebio Octet Red 96 was used for detection, and the sensor position was selected according to the sample position. […]
Measurement Label: koff (s⁻¹)
Quick reminder: number only, in s⁻¹, skip the unit.

Briefly, koff measured for hzsp34.40 (antibody, human IgG1, kappa, L234A L235A, V domains shown, IgG1 L234A L235A, kappa) VH: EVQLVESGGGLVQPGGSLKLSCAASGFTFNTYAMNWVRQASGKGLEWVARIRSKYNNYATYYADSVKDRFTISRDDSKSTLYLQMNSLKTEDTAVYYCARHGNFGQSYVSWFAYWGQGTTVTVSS VL: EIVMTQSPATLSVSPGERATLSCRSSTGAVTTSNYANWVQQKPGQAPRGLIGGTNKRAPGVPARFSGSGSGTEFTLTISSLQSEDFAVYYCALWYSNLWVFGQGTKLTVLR : 0.00515
